- procedure text: Pharmacokinetics of triptorelin in rats
- Format: in vivo, female Sprague–Dawley rats
- reported conditions: female, Sprague-Dawley, rat, plasma, sc, 9 ug/kg
attribute measured: Tmax (min)
Return type: number; implicit unit min.

Entry CC(C)C[C@H](NC(=O)[C@@H](Cc1c[nH]c2ccccc12)NC(=O)[C@H](Cc1ccc(O)cc1)NC(=O)[C@H](CO)NC(=O)[C@H](Cc1c[nH]c2ccccc12)NC(=O)[C@H](Cc1c[nH]cn1)NC(=O)[C@@H]1CCC(=O)N1)C(=O)N[C@@H](CCCNC(=N)N)C(=O)N1CCC[C@H]1C(=O)NCC(N)=O [triptorelin, Triptorelin acetate] has what Tmax? 30
